From: the supplement of paper PMC9233669

Collected self-aminoacylation values appear next to each entry.
system: biotinyl-Ile-oxazolone; experiment: self-aminoacylation, catalytic enhancement (BIO) (fold over background); higher = more active; k-Seq, kA / k0A0; sequences stand for … in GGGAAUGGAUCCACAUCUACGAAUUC…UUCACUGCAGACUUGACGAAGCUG
This sample holds only a part of the variants without activity.
Lab note: write the figure by itself, no unit.

Consider the worked cases shown below.
AUUACCAUGGUGAUCGAGUGA [Fam2.1 aminoacylation ribozyme variant]; 2.33
AUUACCCUAGUCAUCGAGUGC [Fam2.1 aminoacylation ribozyme variant]; 1.15
CUACUUCAAAAUAUCGGUCUG [Fam1A.1 aminoacylation ribozyme variant]; 1.01
AUUAGCCUGGUCAUCGCGUGA [Fam2.1 aminoacylation ribozyme variant]; 10.3
GAGUUCGCUAAUAGUCGCAAG [Fam3.1 aminoacylation ribozyme variant]; 2.8
CUACACUUCAAACAAUCGGUC [Fam1B.1 aminoacylation ribozyme variant]; 1.22

Here is another sequence to look at.
Query string: Give the value of self-aminoacylation reported for the following: CUACUUCAAGCAAUCGGUUUG [Fam1A.1 aminoacylation ribozyme variant]
Result string: 1.11

###

Measured self-aminoacylation, listed per entry.
tested on: biotinyl-Leu-oxazolone; assay: self-aminoacylation, catalytic enhancement (BLO) (fold over background); higher = more active; k-Seq, kA / k0A0; sequences stand for … in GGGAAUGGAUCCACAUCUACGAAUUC…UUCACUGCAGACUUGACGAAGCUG
Variants at the floor of the assay were thinned out.
Form: value (number only, do not type unit).

AUUCCCCUGGCCAUCGAGUGA [Fam2.1 aminoacylation ribozyme variant]; 8.45
AAGUUUGCUAAUAGUCACUAG [Fam3.1 aminoacylation ribozyme variant]; 0.836
CUACUUCACACAAUGGGUCUG [Fam1A.1 aminoacylation ribozyme variant]; 0.775
CUACUUCAAACAAUCUGCCUG [Fam1A.1 aminoacylation ribozyme variant]; 0.957
AUUAACCUAGUUCAUCGGGUG [Fam2.2 aminoacylation ribozyme variant]; 2.71

Below: the item to evaluate.
Query string: Provide measured self-aminoacylation on biotinyl-Leu-oxazolone for AAGUCUGGUAAUAGUCGCAAG [Fam3.1 aminoacylation ribozyme variant] please.
Result string: 0.903

###

tested on: biotinyl-Met-oxazolone; assay: self-aminoacylation, catalytic enhancement (BMO) (fold over background); higher = more active; k-Seq, kA / k0A0; sequences stand for … in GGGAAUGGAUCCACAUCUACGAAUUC…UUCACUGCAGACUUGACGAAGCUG
This sample holds only a part of the variants without activity.
Each entry below lists one item and its recorded self-aminoacylation value.
Reply with the value as a number alone.

Query string: Provide self-aminoacylation value for the following sequence: AUUCAGUUAGGUCAUCGGGUG [Fam2.2 aminoacylation ribozyme variant]
Result string: 3.8

Query string: State its self-aminoacylation for this sequence: AAGUUUGCUAAUAUUCUCAAG [Fam3.1 aminoacylation ribozyme variant]
Result string: 1.17

Query string: Respond only with self-aminoacylation recorded for CUACUUCAAACAAGCGGACUG [Fam1A.1 aminoacylation ribozyme variant]
Result string: 0.81

Query string: Return self-aminoacylation (reported value) for this sequence: CCACACUUCAACCAAUCCGUC [Fam1B.1 aminoacylation ribozyme variant]
Result string: 0.672

Query string: For the sequence AUUCCCCUGGUCAUAGAGUGA [Fam2.1 aminoacylation ribozyme variant] , report self-aminoacylation.
Result string: 10

Query string: State, in one line, measured self-aminoacylation of UUACUUCAAACAAUCGGUUUG [Fam1A.1 aminoacylation ribozyme variant]
Result string: 1.48

###

test system: biotinyl-Phe-oxazolone; assay: self-aminoacylation, catalytic enhancement (BFO) (fold over background); higher = more active; k-Seq, kA / k0A0; sequences stand for … in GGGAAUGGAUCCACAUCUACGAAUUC…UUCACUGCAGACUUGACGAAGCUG
This sample holds only a part of the variants without activity.
Quick rule: self-aminoacylation of at least 2 means Criterion met, below that means Criterion not met.

AUUAACAUGGUCAUCGAGUGA [Fam2.1 aminoacylation ribozyme variant]; Criterion met
CCAAACUUCAAGCAAUCGGUC [Fam1B.1 aminoacylation ribozyme variant]; Criterion met
CUACUUCAAACAAUCGCUCUA [Fam1A.1 aminoacylation ribozyme variant]; Criterion not met
UAGUUUGCUAAUAGUCGCGAG [Fam3.1 aminoacylation ribozyme variant]; Criterion met
AAGUUUGCUAGUAGUCGCACG [Fam3.1 aminoacylation ribozyme variant]; Criterion met

Query string: Record AAGUUCGCUACUAGUCGCAAG [Fam3.1 aminoacylation ribozyme variant] ; criterion: self-aminoacylation no lower than 2. Met?
Result string: Criterion met

Query string: Test whether the sequence CUUAACCUAGGUCAUCGGGUG [Fam2.2 aminoacylation ribozyme variant] records self-aminoacylation of 2 or higher.
Result string: Criterion met

Query string: Check the entry CUACUUACAACAAUCGGUCUG [Fam1A.1 aminoacylation ribozyme variant] : does self-aminoacylation equal or exceed 2?
Result string: Criterion met

Query string: Does AAGUUUGCUAAUAGCCGCGAG [Fam3.1 aminoacylation ribozyme variant] have a reported self-aminoacylation of at least 2?
Result string: Criterion not met

Query string: Exam item: decide whether the reported self-aminoacylation for CCACACUUCAACCAAUCGGUG [Fam1B.1 aminoacylation ribozyme variant] is at least 2.
Result string: Criterion met

###

self-aminoacylation: recorded values
system: biotinyl-Phe-oxazolone; experiment: self-aminoacylation, catalytic enhancement (BFO) (fold over background); higher = more active; k-Seq, kA / k0A0; sequences stand for … in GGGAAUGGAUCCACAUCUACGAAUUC…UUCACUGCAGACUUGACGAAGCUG
Fewer inactive variants are shown than the library holds.
Field format: numeric only.

Query string: Please report the measured self-aminoacylation for CCACACUUCAAUCAAUCGGUU [Fam1B.1 aminoacylation ribozyme variant]
Result string: 7.61

Query string: Tell us which self-aminoacylation value is on record for AAGCUUGCUAAUAGUCGGAAG [Fam3.1 aminoacylation ribozyme variant]
Result string: 3.45

Query string: Provide only the value of recorded self-aminoacylation for UUACUUCAAACAAUCGAUCUG [Fam1A.1 aminoacylation ribozyme variant]
Result string: 1.8

Query string: Please list self-aminoacylation recorded for the sequence AAGUUUUCUAAUAGUCGCAGG [Fam3.1 aminoacylation ribozyme variant]
Result string: 3.74

###

Measured self-aminoacylation, listed per entry for reference.
test system: biotinyl-Leu-oxazolone; assay: self-aminoacylation, catalytic enhancement (BLO) (fold over background); higher = more active; k-Seq, kA / k0A0; sequences stand for … in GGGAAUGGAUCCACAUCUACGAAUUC…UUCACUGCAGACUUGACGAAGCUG
Fewer inactive variants are shown than the library holds.

Solved cases below.
AAACACCUAGGUCAUCGGGUG [Fam2.2 aminoacylation ribozyme variant]; 3.04
AAGUUUGCUAAUAGUCCCGAG [Fam3.1 aminoacylation ribozyme variant]; 1.31

Query string: Report measured self-aminoacylation; entry is AUUACCCUGGUCAACGAGUGG [Fam2.1 aminoacylation ribozyme variant]
Result string: 1.38

###

tested on: biotinyl-Ile-oxazolone; assay: self-aminoacylation, catalytic enhancement (BIO) (fold over background); higher = more active; k-Seq, kA / k0A0; sequences stand for … in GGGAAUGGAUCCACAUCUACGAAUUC…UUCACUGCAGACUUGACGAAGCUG
Variants at the floor of the assay were thinned out.
parameter: self-aminoacylation
No unit in the answer, please; the number alone is enough.

Example cases with answers are listed next.
CUACUUCAAACAAUCCGUGUG [Fam1A.1 aminoacylation ribozyme variant]; 1.99
AUUACCCUGGUUAUCUAGUGA [Fam2.1 aminoacylation ribozyme variant]; 5.78
AUGUUUUCUAAUAGUCGCAAG [Fam3.1 aminoacylation ribozyme variant]; 1.62
AUUCACCUCGGUCAUCGGUUG [Fam2.2 aminoacylation ribozyme variant]; 0.923
GUUCACCAAGGUCAUCGGGUG [Fam2.2 aminoacylation ribozyme variant]; 4.16

Query string: // fetch self-aminoacylation given entry CUACGUCAAACAAUCCGUCUG [Fam1A.1 aminoacylation ribozyme variant]
Result string: 1.25

Query string: Tell me self-aminoacylation reported for AAUUUUGCUAAUAGUCGGAAG [Fam3.1 aminoacylation ribozyme variant]
Result string: 1.23

Query string: Name the recorded self-aminoacylation of the item AAGAUUGCUAAUAUUCGCAAG [Fam3.1 aminoacylation ribozyme variant] in your answer.
Result string: 2.02

Query string: Report measured self-aminoacylation; entry is AUUACCUUGGUGAUCGAGUGA [Fam2.1 aminoacylation ribozyme variant]
Result string: 2.25

###

tested on: biotinyl-Ile-oxazolone; assay: self-aminoacylation, catalytic enhancement (BIO) (fold over background); higher = more active; k-Seq, kA / k0A0; sequences stand for … in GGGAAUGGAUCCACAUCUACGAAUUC…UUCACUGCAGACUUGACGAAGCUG
This sample holds only a part of the variants without activity.
Quick list: self-aminoacylation per entry.

AAAUUGGCUAAUAGUCGCAAG [Fam3.1 aminoacylation ribozyme variant]; 2.32
CUAGUUCAAACAAUCGGUCUU [Fam1A.1 aminoacylation ribozyme variant]; 1.14
AAGUUUGCGAAAAGUCGCAAG [Fam3.1 aminoacylation ribozyme variant]; 1.46
AGUACCCUGGUCUUCGAGUGA [Fam2.1 aminoacylation ribozyme variant]; 3.54
AUUCACCCAGGUCAUCGGGGG [Fam2.2 aminoacylation ribozyme variant]; 1.86

Could you now look at the following sequence, please?
Query string: Provide measured self-aminoacylation value, entry: AUUCACCUCGGGCAUCGGGUG [Fam2.2 aminoacylation ribozyme variant]
Result string: 3.71
